- assay.info: Cytotoxicity assay, 6 days
- Format: cell-based
- condition.info: human, CCRF-CEM cells
Classify: label 1 when EC50 at 6 days is strictly less than 30 µM; label 0 when EC50 at 6 days is not.

# compound, group.label
data = [
    ("CN1CCN(C(=O)Cn2c3ccccc3c3ccnc(CN(CCCCN)[C@H]4CCCc5cccnc54)c32)CC1 [drawing 823]", "label 0"),
    ("NCCCCN(Cc1nccc2c3ccccc3n(CCCN)c12)[C@H]1CCCc2cccnc21 [drawing 827]", "label 1"),
    ("CC(C)(C)OC(=O)Cn1c2ccccc2c2ccnc(CN(CCCN3CCNCC3)[C@H]3CCCc4cccnc43)c21 [drawing 825]", "label 1"),
    ("C[C@@H]1CN(C(=O)Cn2c3ccccc3c3ccnc(CN(CCCCN)[C@H]4CCCc5cccnc54)c32)C[C@H](C)O1 [drawing 826]", "label 1"),
]
